- ASSAY_TARGET: T1, human GIP receptor (human, UniProt P48546 22-466)
- T1 sequence (looked up): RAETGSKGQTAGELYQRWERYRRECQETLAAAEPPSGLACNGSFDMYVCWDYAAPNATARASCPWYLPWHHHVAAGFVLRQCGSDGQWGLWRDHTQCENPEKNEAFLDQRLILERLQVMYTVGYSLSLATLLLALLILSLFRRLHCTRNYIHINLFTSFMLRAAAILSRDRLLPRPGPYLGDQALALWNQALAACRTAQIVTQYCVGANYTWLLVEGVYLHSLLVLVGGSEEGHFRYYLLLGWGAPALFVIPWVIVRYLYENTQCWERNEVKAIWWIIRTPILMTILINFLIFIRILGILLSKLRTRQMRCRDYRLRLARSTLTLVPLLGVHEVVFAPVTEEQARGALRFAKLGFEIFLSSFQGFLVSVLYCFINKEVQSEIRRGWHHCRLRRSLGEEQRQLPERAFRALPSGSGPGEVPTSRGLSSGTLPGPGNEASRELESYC
- RUN_DESCRIPTION: cell-based or functional assay
Bridge positions count the residues as written; N and C are the ends. Square brackets hold non-standard residues; d marks the D form. Ends that are not written are not given here. Aib = CC(C)(N)C(=O)O
Reported values of In vitro activity compared to native peptide (%) vs GIP for individual entries

Use these answered entries as a reference point.
{"columns": ["BINDER", "ASSAY_RESULT"],
 "data": [
  ["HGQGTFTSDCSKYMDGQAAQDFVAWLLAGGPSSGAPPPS [Triple agonist of SEQ ID NO: 45]", "< 0.1%"],
  ["Y[Aib]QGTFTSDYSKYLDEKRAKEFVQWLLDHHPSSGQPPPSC (bridge 16-20) [Triple agonist of SEQ ID NO: 42]", "7.8%"],
  ["H[Aib]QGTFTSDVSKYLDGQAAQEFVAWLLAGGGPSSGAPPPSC [Triple agonist of SEQ ID NO: 10]", "< 0.1%"]
]}

input: I have this binder here, H[Aib]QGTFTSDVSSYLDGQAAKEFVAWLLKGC [Triple agonist of SEQ ID NO: 6] , and I need its recorded In vitro activity compared to native peptide (%) vs GIP.
output: < 0.1%

input: I have this binder here, H[Aib]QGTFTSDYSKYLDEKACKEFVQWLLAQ (bridge 16-20) [Triple agonist of SEQ ID NO: 31] , and I need its recorded In vitro activity compared to native peptide (%) vs GIP.
output: 2.4%

input: I have this binder here, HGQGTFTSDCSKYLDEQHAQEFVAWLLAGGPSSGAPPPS [Triple agonist of SEQ ID NO: 46] , and I need its recorded In vitro activity compared to native peptide (%) vs GIP.
output: < 0.1%
